System: A549
Experiment Notes: Anticancer activity against human A549 cells by sulforhodamine B assay
Type: functional, cell-based
pIC50: −log10 of the molar value.
Binary call on pIC50: label 1 from 5 upward, label 0 beneath that.

{"Molecule": "COC(=O)[C@@H](CS)N(Cc1ccccc1)C(=O)CC[C@H]1O[C@@H]2O[C@]3(C)CC[C@H]4[C@H](C)CCC([C@H]1C)[C@@]24OO3 (stereo partly specified)", "Study Target": "A549", "Answer Label": "label 1"}
{"Molecule": "C[C@@H]1CC[C@H]2[C@@H](C)C(=O)O[C@@H]3O[C@@]4(C)CC[C@@H]1[C@]32OO4 [ARTEMISININ]", "Study Target": "A549", "Answer Label": "label 0"}
{"Molecule": "C[C@H]1[C@@H](CCSCC[C@H]2O[C@@H]3O[C@]4(C)CC[C@H]5[C@H](C)CCC([C@H]2C)[C@@]35OO4)O[C@@H]2O[C@]3(C)CCC4[C@H](C)CC[C@@H]1[C@]42OO3 (stereo partly specified)", "Study Target": "A549", "Answer Label": "label 1"}
{"Molecule": "COc1cccc2c1C(=O)c1c(O)c3c(c(O)c1C2=O)C[C@@](O)(C(=O)CO)C[C@@H]3O[C@H]1C[C@H](N)[C@H](O)[C@H](C)O1 [DOXORUBICIN]", "Study Target": "A549", "Answer Label": "label 1"}
